- EXPERIMENTAL_PROTOCOL: Volume of distribution at steady state in cannulated Sprague-Dawley rat at 2 mg/kg, iv administered as 10 mins infusion by LC-MS/MS analysis
- Format: ADME, organism-based
- MEASUREMENT_CONDITIONS: in vivo, read-out: Vdss
ASSAY_READOUT: Vd (L/kg)

P: CCNc1cc2oc(-c3ccc(F)cc3)c(C(=O)NC)c2cc1-c1ccc(OC)c(C(=O)NC2(c3ncccn3)CC2)c1
Q: CCN(c1cc2oc(-c3ccc(F)cc3)c(C(=O)NC)c2cc1-c1ccc(OC)c(C(=O)NC2(c3ncccn3)CC2)c1)S(C)(=O)=O
Looking only at measured Vd, which entry is lower, P or Q ? Respond with the label that goes with your answer.
P
(P: 4 L/kg, Q: 14 L/kg)
